# tested-target: Human Factor D (Homo sapiens (Human), UniProt P00746)
# Sequence (P00746 26-253): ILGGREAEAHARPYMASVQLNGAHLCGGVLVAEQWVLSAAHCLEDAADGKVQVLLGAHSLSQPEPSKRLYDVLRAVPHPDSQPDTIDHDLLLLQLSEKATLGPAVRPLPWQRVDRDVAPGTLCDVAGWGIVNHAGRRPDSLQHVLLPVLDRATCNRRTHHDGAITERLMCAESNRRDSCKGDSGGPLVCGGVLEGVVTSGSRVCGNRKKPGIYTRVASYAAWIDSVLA
# assay-comment: Human Factor D assay
# Format: biochemical
# condition-notes: Table 4; Factor D inhibition, substrate Z-L-Lys-SBzl
pIC50: −log10 of the molar value.
Assign pIC50 to each entry below.

Please give the measured pIC50 for this compound: `CC(=O)c1nn(CC(=O)N2CCC[C@@H](CNC(=O)c3cccc(Br)n3)C2)c2ccc(-c3cnc(C)nc3)cc12` < 5.00

Another: `CC(=O)c1nn(CC(=O)N2C[C@H](F)C[C@@H]2c2nc3nc(Br)ccc3[nH]2)c2ccc(-c3cnc(C)nc3)cc12` < 5.00

And what about the compound Cc1ccc(-c2ccc3c(c2)c(C(N)=O)cn3CC(=O)N2CCC(F)CC[C@H]2C(=O)Nc2cccc(C)n2)cn1 (stereo partly drawn) ? < 5.00

Entry `CC(=O)c1nn(CC(=O)N2C[C@H](F)C[C@H]2c2nc3nc(Br)ccc3[nH]2)c2ccc(-c3cnc(C)nc3)cc12` please < 5.00

Here is the next compound: `CC(=O)c1nn(CC(=O)N2C[C@H](F)C[C@H]2C(=O)Nc2cccc(Br)n2)c2ccc(N3CCn4c(nnc4C(F)(F)F)C3)cc12` > 6.00

Next compound up: `CC(=O)c1nn2c3ccc(cc13)-c1cnc(nc1)NCCCCCCCCCCCc1cc(Cl)c(F)c(c1)CNC(=O)[C@@H]1C[C@@H](F)CN1C(=O)C2` < 5.00

----------
# tested-target: Human Factor D (Homo sapiens (Human))
# assay-comment: Human Factor D assay
# Format: biochemical
# condition-notes: Table 4; Factor D inhibition, substrate Z-L-Lys-SBzl
Kindly state IC50 for each of the entries shown.

Which IC50 value is on record for Cc1cccc(NC(=O)[C@@H]2CCC(F)CCN2C(=O)Cn2cc(C(N)=O)c3cc(-c4ccc(N)nc4)ccc32)n1 (stereo partly drawn) [Compound 595] ? > 10000 nM

Proceed to CC[C@@H](C(=O)Nc1cccc(Br)n1)N(C)C(=O)Cn1nc(C(C)=O)c2cc(-c3cnc(C)nc3)ccc21 [Compound 598] 1000 to 10000 nM

COc1cc(CC(=O)N2C[C@H](F)C[C@H]2C(=O)Nc2cccc(-c3ccccc3Cl)c2F)cc(-c2cnc(C)nc2)c1 [Compound 636] ? < 1000 nM

// repeat for CC(=O)c1nn(CC(=O)N2C[C@H]3C[C@H]3[C@H]2C(=O)Nc2ccn(CC(F)(F)F)n2)c2ccc(-c3cnc(C)nc3)cc12 [Compound 606] and report < 1000 nM

Also CC(=O)c1nn(CC(=O)N2C[C@@](F)(CN=[N+]=[N-])C[C@H]2C(=O)Nc2cccc(Br)n2)c2ccc(-c3cnc(C)nc3)cc12 [Compound 547] , if possible. < 1000 nM

Same for Cc1cccc(NC(=O)[C@@H]2CCC(F)CCN2C(=O)Cn2cc(C(N)=O)c3cc(-c4cnc5cc(C)nn5c4)ccc32)n1 (stereo partly drawn) [Compound 614] > 10000 nM

----------
# tested-target: Human Factor D (Homo sapiens (Human))
# assay-comment: Human Factor D assay
# Assay type: biochemical
# condition-notes: Table 4; Factor D inhibition, substrate Z-L-Lys-SBzl
pIC50: −log10 of the molar value.
Assign pIC50 to each entry below.

If you can, please state the reported pIC50 value of CCOP(=O)(OCC)OC[C@@]12C[C@@H]1N(C(=O)Cn1nc(C(C)=O)c3cc(-c4cnc(C)nc4)ccc31)[C@H](C(=O)Nc1cccc(Br)n1)C2 [Compound 581] . 5.00 to 6.00

Request: `Cc1ncc(-c2ccc3c(c2)c(C(=O)NS(C)(=O)=O)nn3CC(=O)N2C[C@H](F)C[C@H]2C(=O)Nc2cccc(Br)n2)cn1` < 5.00

Same for CC(=O)c1nn(CC(=O)N2C[C@H](F)C[C@H]2C[S+]([O-])c2cccc(Br)n2)c2ccc(-c3cnc(C)nc3)cc12 (stereo partly drawn) 5.00 to 6.00

Same thing, different molecule: `COP(=O)(CC(=O)c1nn(CC(=O)N2C[C@H](F)C[C@H]2C(=O)Nc2cccc(Br)n2)c2ccc(-c3cnc(C)nc3)cc12)OC` < 5.00

Also COCCN(C)CCN1CC(NC(=O)[C@@H]2C[C@@H](F)CN2C(=O)Cn2nc(C(C)=O)c3cc(-c4cnc(C)nc4)ccc32)CC1=O (stereo partly drawn) ? < 5.00

Entry `Cc1cccc(C[C@@H](O)[C@H]2C[C@@H](F)CN2C(=O)Cn2cc(C(N)=O)c3cc(-c4cnc(C)nc4)ccc32)n1` please < 5.00

----------
# tested-target: Human Factor D (Homo sapiens (Human), UniProt P00746)
# assay-comment: Human Factor D assay
# Assay type: biochemical
# condition-notes: Table 3; Factor D inhibition, substrate Z-L-Lys-SBzl
Consider the following molecules; for each one, report its IC50.

Under Human Factor D (Homo sapiens (Human), UniProt P00746): IC50 value of `CC(=O)c1nn(CC(=O)N2C[C@H](F)C[C@H]2C(=O)Nc2ccc3c(S(=O)(=O)O)cccc3c2)c2ccc(-c3cnc(C)nc3)cc12` ? 1 to 10 µM

Please answer likewise for `CC(=O)c1nn(CC(=O)N2C[C@H](F)C[C@H]2C(=O)Nc2cccc(-c3ccc4scnc4c3)c2F)c2ccc(-c3cnc4cc(C)nn4c3)cc12` < 1 µM

Another: `CC(=O)c1cn(CC(=O)N2C[C@H](F)C[C@H]2C(=O)Nc2cccc(Br)n2)c2ccc(-c3cnc(O[C@@H]4CO[C@H]5[C@@H]4OC[C@H]5O)nc3)cc12` < 1 µM

Repeat with `CC(=O)c1nn(CC(=O)N2CCC[C@@H]2CC(=O)O)c2ccc(-c3cnc(C)nc3)cc12` > 10 µM

Ok, now `CC(=O)c1nn(CC(=O)N2C[C@H](F)C[C@H]2C(=O)Nc2cccc(-c3cc(S(=O)(=O)NC4CC4)ccc3Cl)c2F)c2ccc(-c3cnc(C)nc3)cc12` < 1 µM

Note, next up: `CC(=O)c1nn(CC(=O)N2C[C@H](F)C[C@H]2C(=S)NCc2cccc(Cl)c2F)c2ccc(-c3cnc(C)nc3)cc12` < 1 µM

----------
Give pIC50 for every item shown.
# tested-target: Human Factor D (Homo sapiens (Human), UniProt P00746)
# assay-comment: Human Factor D assay
# Format: biochemical
# condition-notes: Table 4; Factor D inhibition, substrate Z-L-Lys-SBzl
pIC50: −log10 of the molar value.

# get_value(readout= pIC50, system= Human Factor D (Homo sapiens (Human), UniProt P00746)) for Cc1cccc(NC(=O)[C@@H]2CCC(F)CCN2C(=O)Cn2cc(C(N)=O)c3cc(-c4cnc5ncccn45)ccc32)n1 (stereo partly drawn) < 5.00

Would you mind doing Cc1cccc(NC(=O)[C@@H]2CCC(F)CCN2C(=O)Cn2cc(C(N)=O)c3cc(-c4ccc5cccnc5c4)ccc32)n1 (stereo partly drawn) as well? < 5.00

Moving on to the next compound: `CC(=O)c1nn(CC(=O)N2C[C@H](F)C[C@H]2c2nnc(CCCC(F)(F)F)[nH]2)c2ccc(-c3cnc(C)nc3)cc12` 5.00 to 6.00

Same question for `Cc1cccc(C[C@@H](O)[C@H]2C[C@@H](F)CN2C(=O)Cn2cc(C(N)=O)c3cc(-c4cnc5cc(C)nn5c4)ccc32)n1` please. < 5.00

Lookup `CC(=O)c1nn(CC(=O)N2C[C@H](F)C[C@H]2CC(N)=O)c2ccc(-c3cnc(C)nc3)cc12` < 5.00

Same again, this time with `CC[C@H](C(=O)Nc1cccc(Br)n1)N(C)C(=O)Cn1nc(C(C)=O)c2cc(-c3cnc(C)nc3)ccc21` < 5.00

----------
# tested-target: Human Factor D (Homo sapiens (Human), UniProt P00746)
# assay-comment: Human Factor D assay
# Format: biochemical
# condition-notes: Table 4; Factor D inhibition, substrate Z-L-Lys-SBzl
pIC50: −log10 of the molar value.
Assignment: determine reported pIC50 for the given compounds.

// map Cc1cccc(NC(=O)[C@@H]2CCC(F)CCN2C(=O)Cn2cc(C(N)=O)c3cc(-c4cnc5c(c4)CCC5)ccc32)n1 (stereo partly shown) to recorded pIC50 (system: Human Factor D (Homo sapiens (Human), UniProt P00746)) < 5.00

Entry to check: `CC(=O)c1nn(CC(=O)N2CCC[C@@H](CNC(=O)c3ncc(Br)s3)C2)c2ccc(-c3cnc(C)nc3)cc12` < 5.00

Note, next up: `CC(=O)c1nn(CC(=O)N2C[C@H](F)C[C@H]2CNS(=O)(=O)c2cccc(Cl)c2F)c2ccc(-c3cnc(C)nc3)cc12` > 6.00

Then what about the compound `Cc1ncc(-c2ccc3c(c2)c(C(=N)N)nn3CC(=O)N2C[C@H](F)C[C@H]2C(=O)Nc2cccc(-c3ccccc3Cl)c2F)cn1` ? > 6.00

Same lookup for `CC(=O)c1nn(CC(=O)N2C[C@H](F)C[C@@H]2c2nnc(-c3cccc(Cl)c3F)[nH]2)c2ccc(-c3cnc(C)nc3)cc12` , please. < 5.00

Same again, this time with `CC(=O)c1nn(CC(=O)N2C[C@H](F)C[C@H]2c2nnc(-c3cccc(Cl)c3F)o2)c2ccc(-c3cnc(C)nc3)cc12` 5.00 to 6.00

Field entry: `Cc1cccc(NC(=O)[C@@H]2CC=CCN2C(=O)Cn2cc(C(N)=O)c3cc(-c4cnc(C)nc4)ccc32)n1` < 5.00

Query `CC(=O)c1nn(CC(=O)N2C[C@H](F)C[C@H]2CNC(=O)c2cccc(Cl)c2F)c2ccc(-c3cnc(C)nc3)cc12` next < 5.00

`CC(=O)c1nn(CC(=O)N2C[C@H](F)C[C@H]2CC(=O)Nc2cccc(Cl)c2F)c2ccc(-c3cnc(C)nc3)cc12` ? < 5.00

Would you kindly repeat that for `CC(=O)c1nn(CC(=O)N2CC=CC[C@H]2C(=O)Nc2cccc(Br)n2)c2ccc(-c3cnc(C)nc3)cc12` ? > 6.00

Quick one: `Cc1ncc(-c2ccc3c(c2)c([C@@H](C)O)nn3CC(=O)N2C[C@H](F)C[C@H]2C(=O)O)cn1` < 5.00

For `CC(=O)c1nn(CC(=O)N2C[C@H](F)C[C@H]2C(=O)Nc2cccc(-c3ccc4c(c3Cl)NCCN4)c2F)c2ccc(-c3cnc(C)nc3)cc12` then? > 6.00

What about `CC(=O)c1nn(CC(=O)N2C[C@H](F)C[C@H]2CC(=O)NC#N)c2ccc(-c3cnc(C)nc3)cc12` ? < 5.00
